target: HER2 (pY1248) in SKBR3 (Homo sapiens, UniProt P04626); construct: host or cells: SKBR3; test: HER2 activation (pY1248-HER2) in SKBR3 cells, western/dot blot; type: cell-based; settings: Table 1; HER2+ breast cancer cells (ebselen oxide value equals SKBR3 48 h); read-out: EC50, μM (HER2 inhibition)
Sequence (P04626 23-1255): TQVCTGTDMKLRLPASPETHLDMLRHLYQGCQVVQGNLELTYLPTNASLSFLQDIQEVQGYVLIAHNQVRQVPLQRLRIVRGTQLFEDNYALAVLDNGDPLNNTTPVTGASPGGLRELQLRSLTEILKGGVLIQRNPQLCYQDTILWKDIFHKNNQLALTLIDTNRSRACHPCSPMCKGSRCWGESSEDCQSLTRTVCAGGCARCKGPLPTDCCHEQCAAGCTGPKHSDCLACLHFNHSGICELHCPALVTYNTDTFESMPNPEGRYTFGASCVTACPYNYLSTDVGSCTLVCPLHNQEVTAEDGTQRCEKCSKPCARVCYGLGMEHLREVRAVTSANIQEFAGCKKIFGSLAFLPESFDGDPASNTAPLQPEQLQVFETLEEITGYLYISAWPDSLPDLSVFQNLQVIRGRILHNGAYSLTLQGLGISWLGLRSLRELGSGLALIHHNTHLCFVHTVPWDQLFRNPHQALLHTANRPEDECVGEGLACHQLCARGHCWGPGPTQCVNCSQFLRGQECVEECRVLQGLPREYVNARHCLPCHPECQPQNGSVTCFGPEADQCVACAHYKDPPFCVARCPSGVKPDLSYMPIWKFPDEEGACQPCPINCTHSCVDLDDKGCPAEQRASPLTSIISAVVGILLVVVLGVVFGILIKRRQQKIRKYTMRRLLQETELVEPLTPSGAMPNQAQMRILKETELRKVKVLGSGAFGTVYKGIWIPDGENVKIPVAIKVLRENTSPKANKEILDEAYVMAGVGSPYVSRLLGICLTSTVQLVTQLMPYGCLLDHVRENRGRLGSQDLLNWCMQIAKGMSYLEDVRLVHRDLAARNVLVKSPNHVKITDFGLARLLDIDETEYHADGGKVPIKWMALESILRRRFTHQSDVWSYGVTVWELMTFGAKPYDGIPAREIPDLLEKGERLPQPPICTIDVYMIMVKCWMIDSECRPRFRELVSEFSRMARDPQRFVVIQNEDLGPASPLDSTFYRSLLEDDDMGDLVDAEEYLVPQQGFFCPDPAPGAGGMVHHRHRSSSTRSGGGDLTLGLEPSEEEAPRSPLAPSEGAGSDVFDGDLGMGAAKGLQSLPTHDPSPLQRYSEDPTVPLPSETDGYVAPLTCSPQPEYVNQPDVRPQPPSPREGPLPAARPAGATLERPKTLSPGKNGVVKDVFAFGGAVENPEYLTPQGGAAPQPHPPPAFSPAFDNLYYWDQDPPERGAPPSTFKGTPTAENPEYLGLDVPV
ENDPOINT_NAME: EC50 (µM)

# MOLECULE, ENDPOINT_NAME, UNITS_LABEL, VALUE
measured = [
    ("O=c1c2ccccc2sn1-c1ccc(Cl)cc1", "EC50", "µM", 41.7),
    ("O=c1c2ccccc2[se]n1-c1ccccc1", "EC50", "µM", 51.3),
    ("Cc1ccc(-n2sc3ccccc3c2=O)cc1", "EC50", "µM", 39.8),
    ("O=C1c2ccccc2[Se](=O)N1c1ccccc1 (centres unmarked) [Ebselen oxide, ebselen oxide]", "EC50", "µM", 26.9),
    ("CC(C)c1ccc(N2Cc3ccccc3C2=O)cc1", "EC50", "µM", 2),
]
